SYSTEM_UNDER_TEST: T1, PSMA Fab (biotinylated (site not stated))
T1 construct: Biotinylated PSMA Fab captured on neutravidin plates in the phage ELISA; also called Anti-PSMA Fab; 006 PSMA Fab
TEST_PROTOCOL: phage ELISA, biotinylated PSMA Fab on neutravidin plate, anti-M13-HRP detection, competitor PSMA antigen pre-incubated
Recorded Phage binding ELISA signal, Anti-PSMA Fab with PSMA antigen by entry
Reply briefly: the number, and no unit.

| BINDER | READOUT_NUMBER |
| --- | --- |
| EFKWCIPMWMCQAN [Phage-2665] | 0.0753 |

## Input Which Phage binding ELISA signal, Anti-PSMA Fab with PSMA antigen is listed for APKWCTPSWMCQQV [Phage-2661] ?
## Output 0.121

## Input Any idea what Phage binding ELISA signal, Anti-PSMA Fab with PSMA antigen was measured for VEKWCRPSWMCQQV [Phage-2660] ?
## Output 0.09

## Input Report Phage binding ELISA signal, Anti-PSMA Fab with PSMA antigen for LQNWCVPAWMCELM [Phage-2651] please.
## Output 0.068

## Input Any idea what its Phage binding ELISA signal, Anti-PSMA Fab with PSMA antigen is? The binder is FVNMCKPAWMCSLL [Phage-2655]
## Output 0.0949
